MEASURED_ON: Alpha-glucosidase MAL12 (Saccharomyces cerevisiae (strain ATCC 204508 / S288c))
Sequence (P53341 whole entry): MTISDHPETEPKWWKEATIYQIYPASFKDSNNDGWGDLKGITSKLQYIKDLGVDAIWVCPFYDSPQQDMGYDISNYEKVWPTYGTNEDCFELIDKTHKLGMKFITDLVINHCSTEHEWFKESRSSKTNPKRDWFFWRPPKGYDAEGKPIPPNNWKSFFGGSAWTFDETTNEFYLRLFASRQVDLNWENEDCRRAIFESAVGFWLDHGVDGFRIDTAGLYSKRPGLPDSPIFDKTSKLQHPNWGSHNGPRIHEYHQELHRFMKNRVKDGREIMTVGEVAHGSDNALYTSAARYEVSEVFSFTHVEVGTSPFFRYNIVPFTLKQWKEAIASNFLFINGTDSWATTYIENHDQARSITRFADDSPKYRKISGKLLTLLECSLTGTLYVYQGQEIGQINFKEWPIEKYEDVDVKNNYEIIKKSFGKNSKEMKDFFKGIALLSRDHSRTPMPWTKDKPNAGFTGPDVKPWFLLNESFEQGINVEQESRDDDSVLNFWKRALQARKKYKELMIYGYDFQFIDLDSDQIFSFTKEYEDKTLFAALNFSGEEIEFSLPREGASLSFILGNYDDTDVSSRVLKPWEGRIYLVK
ASSAY_METHOD_TEXT: Alpha-glucosidase Assay
TEST_PARAMETERS: pH 6.8
PARAMETER_MEASURED: pIC50
Schema: pIC50 number; meaning minus log10 of the concentration expressed in molar units.

Below: 2 compounds and their reported pIC50.
substance_smiles=CN(C)c1ccc(/C=N/Nc2nc(-c3ccc(Cl)cc3)cs2)cc1 parameter_measured=pIC50 readout_value=3.69
substance_smiles=COc1ccc(-c2csc(N/N=C/c3ccc4ccccc4c3)n2)cc1 parameter_measured=pIC50 readout_value=3.71

# ---- query compound ----
Record COc1ccc(-c2csc(N/N=C/c3ccc(OCc4ccccc4)cc3)n2)cc1 , field pIC50: 4.00
